species on record: Mus musculus; experiment: Percentage rate of O2 consumption by liver microsomes and NADPH in the presence compared to the rate in presence of doxorubicin.; assay type: functional
property: O2 consumption (%)

INSERT INTO measurements (molecule, property, units_symbol, experimental_value) VALUES
  ('COc1cccc2c1C(=O)c1c(O)c3c(c(O)c1C2=O)C[C@@](O)(C(C)=O)C[C@@H]3OC1CC(NC2CCCCC2)C(O)C(C)O1 (stereo partly drawn)', 'O2 consumption', '%', 57),
  ('COc1cccc2c1C(=O)c1c(O)c3c(c(O)c1C2=O)C[C@@](O)(C(C)=O)C[C@@H]3OC1CC(NC2CCOCC2)C(O)C(C)O1 (stereo partly drawn)', 'O2 consumption', '%', 68),
  ('COc1cccc2c1C(=O)c1c(O)c3c(c(O)c1C2=O)C[C@@](O)(C(C)=O)C[C@@H]3OC1CC(N2CCCCC2)C(O)C(C)O1 (stereo partly drawn)', 'O2 consumption', '%', 8),
  ('COc1cccc2c1C(=O)c1c(O)c3c(c(O)c1C2=O)C[C@@](O)(C(C)=O)C[C@@H]3OC1CC(N2CCC(OC)CC2)C(O)C(C)O1 (stereo partly drawn)', 'O2 consumption', '%', 82),
  ('COc1cccc2c1C(=O)c1c(O)c3c(c(O)c1C2=O)C[C@@](O)(C(C)O)C[C@@H]3O[C@H]1C[C@H](N2CCC(OC)CC2)[C@H](O)[C@H](C)O1 (stereo partly drawn)', 'O2 consumption', '%', 64),
  ('COc1cccc2c1C(=O)c1c(O)c3c(c(O)c1C2=O)C[C@@](O)(C(C)O)C[C@@H]3O[C@H]1C[C@H](N2CCOCC2)[C@H](O)[C@H](C)O1 (stereo partly drawn)', 'O2 consumption', '%', 29),
  ('COc1cccc2c1C(=O)c1c(O)c3c(c(O)c1C2=O)C[C@@](O)(C(=O)CO)C[C@@H]3O[C@H]1C[C@H](N)[C@H](O)[C@H](C)O1', 'O2 consumption', '%', 100),
  ('COc1cccc2c1C(=O)c1c(O)c3c(c(O)c1C2=O)C[C@@](O)(C(C)=O)C[C@@H]3OC1CC(N2CCOCC2)C(O)C(C)O1 (stereo partly drawn)', 'O2 consumption', '%', 25);
